Test system: PXR:RXRa (NR concentration 270 nM, RXRa partner concentration 90 nM)
Assay: PBM binding z-score (relative to random genomic background probes); higher = stronger binding; sequences stand for … in GC…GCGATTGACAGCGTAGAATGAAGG
Decide by PBM binding z-score: equal to or exceeding 2 means y, less means n.

Please review the following examples before continuing.
(Q) Quick check: does `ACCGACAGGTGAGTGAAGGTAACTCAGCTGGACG` have PBM binding z-score greater than or equal to 2?
(A) n

(Q) Quick check: does `TAGCCTAGGTCATGCGGTCCAGTATAGTGTCGGC` have PBM binding z-score greater than or equal to 2?
(A) n

More entries:
(Q) Quick check: does `ATCTCTAGGTAAAGATGGTTCAGTGAATGCAAAT` have PBM binding z-score greater than or equal to 2?
(A) n

(Q) Quick check: does `CAAACTAGGTCAAGGTCAATGTCGGTTTGTGCCA` have PBM binding z-score greater than or equal to 2?
(A) y

(Q) Quick check: does `AATACAGGGTAATCGTAGGCCAGAGTACGCACAG` have PBM binding z-score greater than or equal to 2?
(A) n

(Q) Quick check: does `TTACCAAGGTGAAAGGTCGTTGACGCACGCCTTG` have PBM binding z-score greater than or equal to 2?
(A) y

(Q) Quick check: does `CCTAGTTGGTCAGCAGGTCACACACCGGATATGA` have PBM binding z-score greater than or equal to 2?
(A) y

(Q) Quick check: does `AGGCAAAGTTCACTAGGTAACGTAAGATTCAGCT` have PBM binding z-score greater than or equal to 2?
(A) y

(Q) Quick check: does `CCAGACAGGTGACAAGGTAACTCAGCCTCGATTA` have PBM binding z-score greater than or equal to 2?
(A) n

(Q) Quick check: does `CCTAGCAAGCCAGGGTCACTCAAGCATTTCGCTT` have PBM binding z-score greater than or equal to 2?
(A) y

(Q) Quick check: does `CCTACTGGGCCAAGGTCATTCATCAGTCAAAGCA` have PBM binding z-score greater than or equal to 2?
(A) y

(Q) Quick check: does `CCTGCTAGGTCAATGGACAGCTAAAGCAGCTCGC` have PBM binding z-score greater than or equal to 2?
(A) n

# credit: the supplement of paper PMC6555819
